Reference source: patent US20240317780A1

Consider the following IC50 values measured on SST2 (Homo sapiens).
Sequence (P30874 whole entry, species assumed): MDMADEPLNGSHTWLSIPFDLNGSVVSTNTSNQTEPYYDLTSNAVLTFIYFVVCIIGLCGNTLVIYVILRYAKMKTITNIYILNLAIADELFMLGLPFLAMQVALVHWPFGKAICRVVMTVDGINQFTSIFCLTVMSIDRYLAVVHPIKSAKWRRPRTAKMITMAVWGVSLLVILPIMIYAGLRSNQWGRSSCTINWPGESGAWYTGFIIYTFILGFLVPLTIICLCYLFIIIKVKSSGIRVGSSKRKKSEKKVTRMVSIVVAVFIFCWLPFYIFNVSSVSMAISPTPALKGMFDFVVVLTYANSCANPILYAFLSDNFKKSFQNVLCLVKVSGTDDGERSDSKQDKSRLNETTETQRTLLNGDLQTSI
Express your answer in nM, writing the number without its unit.

Example entries begin here.
MOLECULE	IC50 (nM)
C[C@@H](O)[C@H](NC(=O)C1CSSCC(NC(=O)C(Cc2ccccc2)NC(=O)CNC(=O)CNC(=O)CNC(=O)C(CC(=O)O)NC(=O)[C@@H](CC(=O)O)NC(=O)C(CNC(=O)CN2CCN(CC(=O)O)CCN(CC(=O)O)CCN(CC(=O)O)CC2)NC(=O)C[N+](C)(C)Cc2ccc([Si](F)(C(C)(C)C)C(C)(C)C)cc2)C(=O)N[C@@H](Cc2ccc(O)cc2)C(=O)NC(Cc2c[nH]c3ccccc23)C(=O)N[C@@H](CCCCN)C(=O)N[C@@H]([C@@H](C)O)C(=O)N1)C(=O)O (stereo partly shown) (natLu complex, metal not drawn) [[Lu]50]	3.72
C[C@@H](O)[C@@H]1NC(=O)[C@H](CCCCN)NC(=O)C(Cc2ccc(NC(N)=O)cc2)NC(=O)[C@H](Cc2ccc(NC(=O)C3CC(=O)NC(=O)N3)cc2)NC(=O)[C@H](NC(=O)[C@H](Cc2ccc(Cl)cc2)NC(=O)CNC(=O)CNC(=O)CNC(=O)C(CC(=O)O)NC(=O)[C@@H](CC(N)=O)NC(=O)C(CNC(=O)CN2CCN(CC(=O)O)CCN(CC(=O)O)CCN(CC(=O)O)CC2)NC(=O)C[N+](C)(C)Cc2ccc([Si](F)(C(C)(C)C)C(C)(C)C)cc2)CSSCC(C(=O)NC(Cc2ccc(O)cc2)C(N)=O)NC1=O (stereo partly shown) (natGa complex, metal not drawn) [[Ga]59]	23.7
CC(O)C(NC(=O)C1CSSCC(NC(=O)C(Cc2ccccc2)NC(=O)CNC(=O)CNC(=O)CNC(=O)C(CC(N)=O)NC(=O)[C@@H](CC(N)=O)NC(=O)C(CNC(=O)CN2CCN(CC(=O)O)CCN(CC(=O)O)CCN(CC(=O)O)CC2)NC(=O)C[N+](C)(C)Cc2ccc([Si](F)(C(C)(C)C)C(C)(C)C)cc2)C(=O)N[C@@H](Cc2ccc(O)cc2)C(=O)NC(Cc2c[nH]c3ccccc23)C(=O)N[C@@H](CCCCN)C(=O)N[C@@H]([C@@H](C)O)C(=O)N1)C(=O)O (stereo partly shown) (natGa complex, metal not drawn) [[Ga]56]	4

From here, focus on the item given below.
Exercise: // lookup IC50 | system=SST2 (Homo sapiens) | key= C[C@@H](O)[C@H](NC(=O)C1CSSCC(NC(=O)C(Cc2ccccc2)NC(=O)CNC(=O)CNC(=O)CNC(=O)C(CC(=O)O)NC(=O)[C@@H](CC(=O)O)NC(=O)C(CNC(=O)CN2CCN(CC(=O)O)CCN(CC(=O)O)CCN(CC(=O)O)CC2)NC(=O)C[N+](C)(C)Cc2ccc([Si](F)(C(C)(C)C)C(C)(C)C)cc2)C(=O)N[C@@H](Cc2ccc(O)cc2)C(=O)NC(Cc2c[nH]c3ccccc23)C(=O)N[C@@H](CCCCN)C(=O)N[C@@H]([C@@H](C)O)C(=O)N1)C(=O)O (stereo partly shown) (natGa complex, metal not drawn) [[Ga]50]
Solution: 3.01
